The origin of these recorded values is patent US7842469B2.

# testProtocol: Luciferase activity of purified RLuc mutants (light output integrated over 10 s, luminometer)
# Assay type: biochemical
# testContext: coelenterazine-cp; relative to native enzyme
measurementType: Activity (relative to RLuc) cp
Hey, just send me the number, nothing else.

// query Would you mind telling me what Activity (relative to RLuc) cp value was observed for C124A/F180A: RLuc mutant C124A/F180A (protein) MASKVYDPEQRKRMITGPQWWARCKQMNVLDSFINYYDSEKHAENAVIFLHGNAASSYLWRHVVPHIEPVARCIIPDLIGMGKSGKSGNGSYRLLDHYKYLTAWFELLNLPKKIIFVGHDWGAALAFHYSYEHQDKIKAIVHAESVVDVIESWDEWPDIEEDIALIKSEEGEKMVLENNAFVETMLPSKIMRKLEPEEFAAYLEPFKEKGEVRRPTLSWPREIPLVKGGKPDVVQIVRNYNAYLRASDDLPKMFIESDPGFFSNAIVEGAKKFPNTEFVKVKGLHFSQEDAPDEMGKYIKSFVERVLKNEQ ?
// result 0.03
